Overview of recorded IC50 for various compounds
testedTarget: C-C chemokine receptor type 2 (Homo sapiens, UniProt P41597)
Sequence (P41597 whole entry): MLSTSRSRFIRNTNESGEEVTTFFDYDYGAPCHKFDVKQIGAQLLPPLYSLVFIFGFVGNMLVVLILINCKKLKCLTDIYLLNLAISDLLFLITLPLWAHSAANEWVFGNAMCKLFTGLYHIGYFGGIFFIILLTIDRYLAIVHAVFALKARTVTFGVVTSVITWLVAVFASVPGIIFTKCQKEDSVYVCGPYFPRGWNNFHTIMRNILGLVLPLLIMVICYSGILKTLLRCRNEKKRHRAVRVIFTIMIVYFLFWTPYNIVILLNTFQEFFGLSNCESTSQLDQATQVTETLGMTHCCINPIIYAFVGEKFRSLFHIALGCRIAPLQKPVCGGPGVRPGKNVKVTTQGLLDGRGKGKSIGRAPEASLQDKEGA
experimentSummary: Antagonist activity at human CCR2

compound | IC50 [nM]
O=C(Nc1ccc(Cl)c(Cl)c1)N1CCC(C(CO)N2CCC(c3c[nH]c4ncccc34)CC2)CC1 (racemic) | 14
O=C(O)C(C1CCN(C(=O)/C=C/c2cc(F)c(F)c(F)c2)CC1)N1CCC(c2c[nH]c3ncccc23)CC1 (centres undefined) | 17
O=C(/C=C/c1cc(F)cc(F)c1)N1CCC([C@@H](CO)N2CCC(c3c[nH]c4ncccc34)CC2)CC1 | 4
O=C(/C=C/c1ccc(Cl)c(Cl)c1)N1CCC(C(CO)N2CCC(c3c[nH]c4ncccc34)CC2)CC1 (racemic) | 6
